Field: PBM binding z-score. Provide a value for each of the sequences that follow.
Tested on: THRa:RXRa (NR concentration 90 nM, RXRa partner concentration 90 nM)
Assay: PBM binding z-score (relative to random genomic background probes); higher = stronger binding; sequences stand for … in GC…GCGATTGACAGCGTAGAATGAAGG
Answers are plain numbers.

Recorded results for 2 sequences are shown here.
| Polymer sequence | Quantitative readout |
| --- | --- |
| CAAACTAGGTCACCGGAAGGTCAACGTCCGCATG | 4.63 |
| TCAGACAGGTGGAGGTAACTCAGGTACGCAGTCG | 1.48 |

State the recorded PBM binding z-score for every item in the following list.
1. ACAGACAGGTGATCAAGGTAACTCAGGCTATCAT
2. ATCGAAAGGTCGTGAGGTGAGTGTACAGAAAGGC
3. CGAGCTAGGTCAAGGACAGTGAATCTCCGCACGC
4. CATATTAGTTGACCATAAGGGCAACCGAAGCTCG

## Output
1.72
3.48
3.02
1.95
